- Tested on: Staphylococcus aureus
- Assay Name: Tested for zone of inhibition against Staphylococcus aureus UC3665 (1 mg/mL, 80 microL/12.7 mm)
- Assay type: functional
Quantity Kind: Diameter of inhibition zone (mm)
Give just the numeric value; mm need not be written.

Examples with answers:
- Molecule: "CCCC(=O)N1C/C(=C(/C)COC(C)=O)C1=O"
  Diameter of inhibition zone / mm: 0
- Molecule: "CCCCCC(=O)N1C/C(=C(/C)COC2CCCCO2)C1=O (configuration not stated)"
  Diameter of inhibition zone / mm: 0
- Molecule: "CCCCOC(=O)N1C/C(=C(\\C)CN=[N+]=[N-])C1=O"
  Diameter of inhibition zone / mm: 30

Query block: Query: Diameter of inhibition zone; subject: CCCCCC(=O)N1C/C(=C(\C)CF)C1=O
Result block: 36

Query block: Query: Diameter of inhibition zone; subject: CCCC(=O)N1C[C@H]([C@H](C)COC(C)=O)C1=O
Result block: 0

Query block: Query: Diameter of inhibition zone; subject: COCCOC(=O)N1C/C(=C(\C)CN=[N+]=[N-])C1=O
Result block: 26

Query block: Query: Diameter of inhibition zone; subject: CCCC(=O)OC[C@@H](C)[C@H]1CN(C(=O)CCC)C1=O
Result block: 28

###

- Test system: Prevotella melaninogenica
- Assay Name: Tested in vitro for its antibacterial activity against Bacteroides melaninogenicus UC 6523
- Assay type: functional
Reported MIC values are given for each entry in this list.
Give just the numeric value; µg/mL need not be written.

- Smiles Code: "CCCC(=O)OC[C@@H](C)[C@H]1CN(C(=O)CCC)C1=O"
  System Under Test: "Prevotella melaninogenica"
  Obs Value: 8

Query block: Query: MIC; subject: CCCCCC(=O)OC[C@@H](C)[C@H]1CN(C(=O)CCCCC)C1=O
Result block: 8

Query block: Query: MIC; subject: C[C@H]1[C@H](NC(=O)/C(=N\OC(C)(C)C(=O)O)c2csc(N)n2)C(=O)N1S(=O)(=O)O
Result block: 4

Query block: Query: MIC; subject: CC(=O)OC[C@@H](C)[C@H]1CN(C(C)=O)C1=O
Result block: 128

Query block: Query: MIC; subject: CCCC(=O)OC[C@H](C)[C@H]1CN(C(=O)CCC)C1=O
Result block: 64

Query block: Query: MIC; subject: CCCC(=O)N1C[C@H]([C@H](C)COC(C)=O)C1=O
Result block: 64

###

Reported Diameter of inhibition zone values are given for each entry in this list.
- Test system: Staphylococcus epidermidis
- Assay Name: Tested for zone of inhibition against Staphylococcus epidermidis UC719 (1 mg/mL, 80 microL/6.5 mm)
- Type: functional
Give just the numeric value; mm need not be written.

Examples with answers:
- Compound: "CCCC(=O)N1C[C@H]([C@@H](C)COC(C)=O)C1=O"
  Units: "mm"
  Obs Value: 0
- Compound: "CCCCCC(=O)N1C[C@H]([C@H](C)COC(C)=O)C1=O"
  Units: "mm"
  Obs Value: 23
- Compound: "CCCC(=O)OC/C(C)=C1\\CN(C(=O)CCC)C1=O"
  Units: "mm"
  Obs Value: 0
- Compound: "CCCC(=O)OC/C(C)=C1/CN(C(=O)c2ccccc2)C1=O"
  Units: "mm"
  Obs Value: 0
- Compound: "CCCCCC(=O)N1C/C(=C(\\C)COC(C)=O)C1=O"
  Units: "mm"
  Obs Value: 7
- Compound: "CC(=O)OC/C(C)=C1\\CN(C(C)=O)C1=O"
  Units: "mm"
  Obs Value: 0
- Compound: "CC(=O)OC[C@H](C)[C@H]1CN(C(C)=O)C1=O"
  Units: "mm"
  Obs Value: 0
- Compound: "CCCC(=O)N1C/C(=C(/C)COC(C)=O)C1=O"
  Units: "mm"
  Obs Value: 0

Query block: // lookup Diameter of inhibition zone | system=Staphylococcus epidermidis | key= CCCCOC(=O)N1C[C@H]([C@H](C)CNC(C)=O)C1=O
Result block: 0

Query block: // lookup Diameter of inhibition zone | system=Staphylococcus epidermidis | key= CCCCCC(=O)OC/C(C)=C1/CN(C(=O)CCCCC)C1=O
Result block: 0

Query block: // lookup Diameter of inhibition zone | system=Staphylococcus epidermidis | key= CCCCCC(=O)N1C/C(=C(\C)CN=[N+]=[N-])C1=O
Result block: 19

Query block: // lookup Diameter of inhibition zone | system=Staphylococcus epidermidis | key= CCCC(=O)N1C[C@H]([C@H](C)COC(C)=O)C1=O
Result block: 0

Query block: // lookup Diameter of inhibition zone | system=Staphylococcus epidermidis | key= CCCCCC(=O)N1C/C(=C(\C)CF)C1=O
Result block: 31

Query block: // lookup Diameter of inhibition zone | system=Staphylococcus epidermidis | key= CCCCCC(=O)N1C/C(=C(\C)Cn2nnc(C(=O)OC)c2C(=O)OC)C1=O
Result block: 0

Query block: // lookup Diameter of inhibition zone | system=Staphylococcus epidermidis | key= CCCCCC(=O)N1C[C@H]([C@H](C)Cn2nnc(C(=O)OC)c2C(=O)OC)C1=O
Result block: 0

Query block: // lookup Diameter of inhibition zone | system=Staphylococcus epidermidis | key= CCCC(=O)OC[C@@H](C)[C@H]1CN(C(=O)c2ccccc2)C1=O
Result block: 0

Query block: // lookup Diameter of inhibition zone | system=Staphylococcus epidermidis | key= CCCCCC(=O)N1C[C@H]([C@H](C)CF)C1=O
Result block: 31

Query block: // lookup Diameter of inhibition zone | system=Staphylococcus epidermidis | key= CCCCCC(=O)OC[C@@H](C)[C@H]1CN(C(=O)CCCCC)C1=O
Result block: 8

Query block: // lookup Diameter of inhibition zone | system=Staphylococcus epidermidis | key= CCCCCC(=O)N1C/C(=C(/C)CO)C1=O
Result block: 0

Query block: // lookup Diameter of inhibition zone | system=Staphylococcus epidermidis | key= CCCC(=O)OC/C(C)=C1/CN(C(=O)CCC)C1=O
Result block: 0

Query block: // lookup Diameter of inhibition zone | system=Staphylococcus epidermidis | key= CC(=O)OC/C(C)=C1/CN(C(C)=O)C1=O
Result block: 0

Query block: // lookup Diameter of inhibition zone | system=Staphylococcus epidermidis | key= CCC[C@@H]1C[C@@H](C(=O)N[C@@H]([C@H]2O[C@H](SC)[C@H](O)[C@@H](O)[C@H]2O)[C@H](C)Cl)N(C)C1 [CLINDAMYCIN]
Result block: 22

Query block: // lookup Diameter of inhibition zone | system=Staphylococcus epidermidis | key= CCCCOC(=O)N1C/C(=C(\C)CN=[N+]=[N-])C1=O
Result block: 32
